Source: ChEMBL document CHEMBL3885861

Organism: Rattus norvegicus
method-notes: Open TG-GATES - Regimen: Single
Assay type: toxicity, organism-based, Sprague-Dawley
Set-up: regimen Single, gender Male, age 6 weeks
measurement-context: in vivo, po, 0 mg/kg, 24 h, tissue Plasma, route gavage, dose level Control
assay-endpoint: K (meq/L)
Report the value in meq/L with no unit label.

Some solved entries appear below for comparison.
>>> number("CC[C@@H](CO)NCCN[C@@H](CC)CO")
4.1
>>> number("CC(CCc1ccccc1)NCC(O)c1ccc(O)c(C(N)=O)c1 (stereo unspecified)")
4.4

Data point: CCN(CC)N=O ; K = 3.7

Summary for this compound, O=C(O)COc1nn(Cc2ccccc2)c2ccccc12 : K is 4.8

What the record says about CC(=O)Nc1ccc2c(c1)Cc1ccccc1-2 : K is 3.9

Looking up CC(C)Cc1ccc(C(C)C(=O)O)cc1 (stereo unspecified) , I see its K listed as 4.5
